The values you see were collected from patent EP0364581A1.

Listed next: entries and their corresponding Kornzahl der Ähre im Isolator.
System: Winterweizens Sorte Kharkovskaya 81
measurement_notes: field test of gametocidal activity (sterilisation of anthers)
Assay type: in vivo, Winterweizen
condition_notes: V. und VI. Periode, 2%ige wäßrige Emulsion, 12 kg/ha

{"columns": ["molecule", "Kornzahl der Ähre im Isolator"],
 "data": [
  ["CC1C=CCCC1C(=O)[O-].[Na+] (centres unmarked)", "0,2"],
  ["C=CCOC(=O)c1ccccc1C(=O)OCC=C", "3,1"],
  ["CC1C=CCCC1C(=O)O.N (centres unmarked)", "0,0"],
  ["CCCCCCOC(=O)c1ccccc1C(=O)OCCCCCC", "0,0"]
]}

query: Request body: readout Kornzahl der Ähre im Isolator, system Winterweizens Sorte Kharkovskaya 81, query `CCCCOC(=O)c1ccccc1C(=O)OCCCC` . Return the value.
result: 0,0
